target: T1, CRF2R
T1 sequence (Q13324 whole entry, species assumed, looked up): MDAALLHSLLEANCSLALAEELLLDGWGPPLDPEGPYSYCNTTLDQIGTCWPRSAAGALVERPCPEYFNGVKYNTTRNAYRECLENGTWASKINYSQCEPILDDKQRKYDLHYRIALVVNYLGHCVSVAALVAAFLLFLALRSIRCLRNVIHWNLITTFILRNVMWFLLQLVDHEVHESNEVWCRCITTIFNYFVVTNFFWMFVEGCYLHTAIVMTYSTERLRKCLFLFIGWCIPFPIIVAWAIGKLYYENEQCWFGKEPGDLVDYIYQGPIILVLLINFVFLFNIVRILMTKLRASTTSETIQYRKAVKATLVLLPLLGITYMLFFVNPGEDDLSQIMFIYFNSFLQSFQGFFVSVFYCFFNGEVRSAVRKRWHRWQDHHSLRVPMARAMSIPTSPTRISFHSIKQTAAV
experiment notes: cell-based or functional assay
Ends that are not written are not given here.
experimental endpoint: CRF2R EC50 (nM)
Write the value in nM as a bare number.

Field: example entries. Status: answers known.
INSERT INTO assay_data (binder, experimental_endpoint, readout_value) VALUES
  ('ZGPPISIDVPLQLLRKVIEIEKQEKEKQQAANNARLLDTI (C-terminal amide) [SEQ ID NO 380]', 'CRF2R EC50', 19),
  ('ZGPPISIDLPIYLLRKMIEIEKQEKEKQQAANNALLLDTI (C-terminal amide) [SEQ ID NO 236]', 'CRF2R EC50', 40.4);

Please give the measured CRF2R EC50 for this binder: ZGPPISIDVPFQLLRKVIEIEKQEKEKQQAANNARLLDTI (C-terminal amide) [SEQ ID NO 382]
39.5

I have this binder here, IVLSLDVPIHLLQILLEQARARAAREQATTNARILARV-NH2 [SEQ ID NO 371] , and I need its recorded CRF2R EC50.
6.62

Sample ZGPPISIDLPFQLLREVIEIEKQEKEKQQAANNALLLATI (C-terminal amide) [SEQ ID NO 359] — what was its CRF2R EC50?
23.1
